target-or-system: Lp-PLA2 in human serum (Homo sapiens)
Construct: from tissue
method-summary: In vitro inhibitory activity towards the enzyme Lp-PLA2 in human serum, [3H]PAF substrate
Assay type: biochemical
condition: 100 nM; human serum
Experimental: The activities of compounds were measured using [^3H] labeled platelet activating factor ([^3H]PAF, Perkinelmer, Lot NET910) as the substrate. The reaction was carried out in a system containing 50 mmol/l HEPES and 150 mmol/l NaCl (pH 7.4) in a total volume of 200 μl. First, 10 μL human plasma and 10 μl DMSO solution of the test compound were added to the system and preincubated for 10 min at 37° C. […] A 100 μl portion of the supernatant was then collected for radioactivity intensity measurement.
Field: inhibition at 0.1 µM. Provide a value for each of the compounds that follow.
Entry rule: numbers only, all in %.

Query: State the recorded inhibition at 0.1 µM for this entry: `CC(C)N(C)Cc1nnc(Cn2c(SCc3ccc(F)cc3)nc(=O)c3c2CCC3)n1Cc1ccc(-c2ccc(C(F)(F)F)cc2)cc1`
Result: 98

Query: I am curious: what inhibition at 0.1 µM value has been reported for `CN1CCN(Cc2nnc(Cn3c(SCc4ccc(F)cc4)nc(=O)c4c3CCC4)n2Cc2ccc(-c3ccc(C(F)(F)F)cc3)cc2)CC1` ?
Result: 91

Query: Can you look up the measured inhibition at 0.1 µM of `CN(C)Cc1cnc(Cn2c(SCc3ccc(F)cc3)nc(=O)c3c2CCC3)n1Cc1ccc(-c2ccc(C(F)(F)F)cc2)cc1` for me?
Result: 89

Query: Fill blank: measured inhibition at 0.1 µM of the compound CC(O)c1nnc(Cn2c(SCc3ccc(F)cc3)nc(=O)c3c2CCC3)n1Cc1ccc(-c2ccc(C(F)(F)F)cc2)cc1 (stereo not shown) is ____.
Result: 98

Query: Item `C[N+](C)(Cc1ccc(F)cc1)Cc1cnc(Cn2c(SCc3ccc(F)cc3)nc(=O)c3c2CCC3)n1Cc1ccc(-c2ccc(C(F)(F)F)cc2)cc1` has what recorded inhibition at 0.1 µM?
Result: 99

Query: What does the data say about its inhibition at 0.1 µM? Entry: `CN(Cc1nnc(Cn2c(SCc3ccc(F)cc3)nc(=O)c3c2CCC3)n1Cc1ccc(-c2ccc(C(F)(F)F)cc2)cc1)C1CC1`
Result: 96

Query: What measured inhibition at 0.1 µM goes with `O=c1nc(SCc2ccc(F)cc2)n(Cc2ncc(CN3CCCC3)n2Cc2ccc(-c3ccc(C(F)(F)F)cc3)cc2)c2c1CCC2` ?
Result: 92

Query: Entry `CC(C)(C)N/N=C/c1nnc(Cn2c(SCc3ccc(F)cc3)nc(=O)c3c2CCC3)n1Cc1ccc(-c2ccc(C(F)(F)F)cc2)cc1` : reported inhibition at 0.1 µM = ?
Result: 88

Query: So what's the measured inhibition at 0.1 µM for this one? `CCN(CC)Cc1nnc(Cn2c(SCc3ccc(F)cc3)nc(=O)c3c2CCC3)n1Cc1ccc(-c2ccc(C(F)(F)F)cc2)cc1`
Result: 93

Query: // lookup inhibition at 0.1 µM for `CCN(CC)Cc1cnc(Cn2c(SCc3ccc(F)cc3)nc(=O)c3c2CCC3)n1Cc1ccc(-c2ccc(C(F)(F)F)cc2)cc1`
Result: 92

Query: I would be grateful if you could share the reported inhibition at 0.1 µM for `CNC(=S)NCc1nnc(Cn2c(SCc3ccc(F)cc3)nc(=O)c3c2CCC3)n1Cc1ccc(-c2ccc(C(F)(F)F)cc2)cc1` .
Result: 91

Query: Value lookup for inhibition at 0.1 µM; key = `CCCc1nnc(Cn2c(SCc3ccc(F)cc3)nc(=O)c3c2CCC3)n1Cc1ccc(-c2ccc(C(F)(F)F)cc2)cc1`
Result: 98

Query: # input compound: `C[C@@H]1CN(Cc2nnc(Cn3c(SCc4ccc(F)cc4)nc(=O)c4c3CCC4)n2Cc2ccc(-c3ccc(C(F)(F)F)cc3)cc2)C[C@H](C)O1` ; wanted: its inhibition at 0.1 µM
Result: 91

* * *

target-or-system: Lp-PLA2 in human serum (Homo sapiens, UniProt Q13093)
Construct: from tissue
Sequence (Q13093 22-441): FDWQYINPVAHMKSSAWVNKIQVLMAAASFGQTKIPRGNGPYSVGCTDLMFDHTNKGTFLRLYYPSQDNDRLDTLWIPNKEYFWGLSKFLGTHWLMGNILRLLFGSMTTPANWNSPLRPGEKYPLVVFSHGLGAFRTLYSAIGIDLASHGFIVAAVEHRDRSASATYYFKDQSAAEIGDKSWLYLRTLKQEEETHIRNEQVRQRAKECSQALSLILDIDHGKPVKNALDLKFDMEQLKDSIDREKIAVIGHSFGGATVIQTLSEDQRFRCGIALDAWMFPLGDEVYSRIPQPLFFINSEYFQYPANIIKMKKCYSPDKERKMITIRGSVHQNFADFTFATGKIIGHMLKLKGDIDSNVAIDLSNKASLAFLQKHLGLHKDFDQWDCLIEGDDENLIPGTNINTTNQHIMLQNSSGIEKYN
method-summary: In vitro inhibitory activity towards the enzyme Lp-PLA2 in human serum, [3H]PAF substrate
Type: biochemical
condition: 10 nM; human serum; read-out: inhibition, %
Label fulfilled for high-side inhibition at 0.01 µM (at or above 70%) and not fulfilled for low-side inhibition at 0.01 µM (below it).

Query: Hello, I need to know if `O=c1nc(SCc2ccc(F)cc2)n(Cc2nnc(CSCc3ccc(F)cc3)n2Cc2ccc(-c3ccc(C(F)(F)F)cc3)cc2)c2c1CCC2` has measured inhibition at 0.01 µM not below 70%. Thanks!
Result: fulfilled

Query: Test whether the compound `CCN1CCN(Cc2nnc(Cn3c(SCc4ccc(F)cc4)nc(=O)c4c3CCC4)n2Cc2ccc(-c3ccc(C(F)(F)F)cc3)cc2)CC1` records inhibition at 0.01 µM of 70% or higher.
Result: fulfilled

Query: # check: inhibition at 0.01 µM of `CC(=O)NCc1nnc(Cn2c(SCc3ccc(F)cc3)nc(=O)c3c2CCC3)n1Cc1ccc(-c2ccc(C(F)(F)F)cc2)cc1` is greater than or equal to 70%
Result: not fulfilled

Query: Has `O=c1nc(SCc2ccc(F)cc2)n(Cc2nnc(CN3CCC(F)(F)C3)n2Cc2ccc(-c3ccc(C(F)(F)F)cc3)cc2)c2c1CCC2` a recorded inhibition at 0.01 µM greater than or equal to 70%?
Result: not fulfilled

Query: Does the reported inhibition at 0.01 µM for `C=C(OC(C)=O)c1nnc(Cn2c(SCc3ccc(F)cc3)nc(=O)c3c2CCC3)n1Cc1ccc(-c2ccc(C(F)(F)F)cc2)cc1` fall at or above the 70% mark?
Result: fulfilled

Query: Is reported inhibition at 0.01 µM greater than or equal to 70% here: `O=c1nc(SCc2ccc(F)cc2)n(Cc2nnc(/C=N/N3CCCCC3)n2Cc2ccc(-c3ccc(C(F)(F)F)cc3)cc2)c2c1CCC2`
Result: not fulfilled

Query: Dear colleague, could you confirm whether `CN(CCN1CCCCC1)Cc1onc(Cn2c(SCc3ccc(F)cc3)nc(=O)c3c2CCC3)c1Cc1ccc(-c2ccc(C(F)(F)F)cc2)cc1` has inhibition at 0.01 µM at or above 70%?
Result: fulfilled

Query: Hi, just wondering whether `C[N+](C)(C)Cc1nnc(Cn2c(SCc3ccc(F)cc3)nc(=O)c3c2CCC3)n1Cc1ccc(-c2ccc(C(F)(F)F)cc2)cc1` shows inhibition at 0.01 µM of 70% or higher.
Result: fulfilled

Query: Form field: inhibition at 0.01 µM at least 70%? Entry: `CC(C)c1nnc(Cn2c(SCc3ccc(F)cc3)nc(=O)c3c2CCC3)n1Cc1ccc(-c2ccc(C(F)(F)F)cc2)cc1`
Result: fulfilled

* * *

For each entry below, report its inhibition at 1 µM value.
target-or-system: Lp-PLA2 in rabbit serum (Oryctolagus cuniculus, UniProt G1SE06)
Construct: from tissue; host or cells: rabbit serum
Sequence (G1SE06 22-423): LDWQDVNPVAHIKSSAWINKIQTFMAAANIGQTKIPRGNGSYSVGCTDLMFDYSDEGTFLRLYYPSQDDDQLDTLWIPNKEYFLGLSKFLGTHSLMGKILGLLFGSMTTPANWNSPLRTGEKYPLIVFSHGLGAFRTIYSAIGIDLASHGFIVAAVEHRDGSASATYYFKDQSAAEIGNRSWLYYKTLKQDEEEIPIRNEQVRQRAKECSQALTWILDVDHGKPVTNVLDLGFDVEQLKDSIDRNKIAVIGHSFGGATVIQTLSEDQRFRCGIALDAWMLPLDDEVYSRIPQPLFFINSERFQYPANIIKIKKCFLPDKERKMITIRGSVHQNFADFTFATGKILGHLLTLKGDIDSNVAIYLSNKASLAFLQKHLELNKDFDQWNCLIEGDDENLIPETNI
method-summary: In vitro inhibitory activity towards the enzyme Lp-PLA2 in rabbit serum, [3H]PAF substrate
Assay type: biochemical
condition: 1 μM; rabbit serum
The figure you give is taken to be in %; do not add the unit.

Query: Please report the recorded inhibition at 1 µM for `CCn1c(Cn2cc(Cc3cnn(C)c3)c(=O)nc2SCc2ccc(F)cc2)nnc1-c1ccc(-c2ccc(C(F)(F)F)cc2)cc1` .
Result: 32

Query: // lookup inhibition at 1 µM for O=c1nc(SCc2ccc(F)cc2)n(CC2=NOC(c3ccc(-c4ccc(C(F)(F)F)cc4)cc3)N2CCN2CCOCC2)c2c1CCC2 (stereo not shown)
Result: 23

Query: Give the measured inhibition at 1 µM of CCCCCCCCCCC1NC(Cn2c(SCc3ccc(F)cc3)nc(=O)c3c2CCC3)=NO1 (stereo not shown) .
Result: 26.6

Query: Given the compound `CCN(CC)CCn1c(-c2ccc(-c3ccc(C(F)(F)F)cc3)cc2)cnc1Cn1c(SCc2ccc(F)cc2)nc(=O)c2c1CCC2` , what is its reported inhibition at 1 µM?
Result: 16

* * *

target-or-system: Lp-PLA2 in human serum (Homo sapiens, UniProt Q13093)
Construct: from tissue
method-summary: In vitro inhibitory activity towards the enzyme Lp-PLA2 in human serum, [3H]PAF substrate
Format: biochemical
condition: 10 nM; human serum; read-out: inhibition, %
recorded-metric: inhibition at 0.01 µM

Query: For the compound shown here, CCN1CCCC1CNCc1nnc(Cn2c(SCc3ccc(F)cc3)nc(=O)c3c2CCC3)n1Cc1ccc(-c2ccc(C(F)(F)F)cc2)cc1 (racemic) , give the reported inhibition at 0.01 µM.
Result: 81%

Query: What value of inhibition at 0.01 µM has been reported for the following compound? `CN(C)C(=O)c1cnc(Cn2c(SCc3ccc(F)cc3)nc(=O)c3c2CCC3)n1Cc1ccc(-c2ccc(C(F)(F)F)cc2)cc1`
Result: 97%

Query: What value of inhibition at 0.01 µM has been recorded for this entry: `O=C1NCCN1Cc1nnc(Cn2c(SCc3ccc(F)cc3)nc(=O)c3c2CCC3)n1Cc1ccc(-c2ccc(C(F)(F)F)cc2)cc1`
Result: 56%
